- experiment-description: yeast display, Sf9 membrane polyspecificity reagent, FACS + sequencing; frameworks hold sequencing errors
readout-kind: polyreactivity (PSR sort gate)

Consider the following illustrative entries.
sequence-record	polyreactivity (PSR sort gate)
QVQLVESGGGLVQAGGSLRLSCAASGITFTSYVMGWYRQAPGKERELVAAIRWSGGRTYYADSVKGRFTITRDNAKNTVYLQMNSLKPEDTAGYYCAAKRKPRPSYRYGYWGQGTQVTVSS	high polyreactivity
QVQLVESGGGLVQAGGSLRLSCAASGSTFGPYAMGWYRQAPGKERELVATINSSGSTNYADSVKGRFTISRDNAKNTVYLQMKSLKPEDTAVYYCATLHYYYWYDYWGQGTQVTVSS	low polyreactivity
QVQRVDSGGGLVQAGGSLRLICAASGFTFKYYAMGWYRQAPGKERELVAAITRGGDTYYADSVMGRFTISRDNAKNTVYLQMNRLKPEETAVYYCNTASDKRAFDYWGQGTQLTVSS	low polyreactivity
QVQLVESGGGLVQAGGSLRLSCAASGFIFQQNAMGWYRQAPAKERELVAAINRSGGSTNYADSVKGRFTISRDNAKNTVYLQMNSLKPEDTAVYYCATNGRSFVSKSTMYYWGQGTQVTVSS	high polyreactivity

As a next step, examine the sequence that follows.
In: Dear colleague, I am looking for the recorded polyreactivity (PSR sort gate) of the following sequence: QVQLVESGGGLVQAGGSLRLICAASGNTFYRNAMGLYRQAPGKERELVAAIDYSAGSTYYADSVKWRFTISRDNAKYSVFFQMKSLNPEDTAVYYCAADARTSRGGRYYYWGQGTQVTVSS
Out: low polyreactivity
